Molecular target: Guanine nucleotide-binding protein G(o) subunit alpha (Homo sapiens) (UniProt P09471)
Sequence (P09471 whole entry, looked up): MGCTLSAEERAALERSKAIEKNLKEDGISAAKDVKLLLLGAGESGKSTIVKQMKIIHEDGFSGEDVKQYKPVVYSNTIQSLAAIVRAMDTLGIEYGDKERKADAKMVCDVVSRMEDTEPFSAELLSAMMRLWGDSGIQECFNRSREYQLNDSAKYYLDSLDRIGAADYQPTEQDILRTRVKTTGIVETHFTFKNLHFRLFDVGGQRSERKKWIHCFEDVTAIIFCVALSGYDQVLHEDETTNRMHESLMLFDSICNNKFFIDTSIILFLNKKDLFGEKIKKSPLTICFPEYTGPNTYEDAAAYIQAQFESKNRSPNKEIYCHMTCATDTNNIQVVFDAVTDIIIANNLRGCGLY
Experiment: compounds changing RGS7 association with Galphao – biochemical, multiplexed bead flow cytometry, primary screen (AID 1439);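 note: fluorescent Galphao held in activated GDP-AlF4 state binding bead-coupled RGS7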
Settings: at 10 µM, actives lie on both sides
The campaign covered roughly 220,000 compounds. About 770 (0.35%) were called active. Another 15% or so got no clear call; they are omitted. Cut-off read from the data, not from the text of the source: active = binding response below about 49% or above about 150%; inconclusive = no clear call, values can overlap the other calls; inactive = in between. The list comes from a sample in which actives are over-represented; it also holds close analogues and randomly drawn compounds.
Hi! Could you answer with just one of these? active, inactive

# count of solved cases: 2
compound	assay-target	assigned-category
Cc1ccc(S(=O)(=O)NCCc2nnc3ccc(SCc4cccnc4)nn23)cc1	Guanine nucleotide-binding protein G(o) subunit alpha (Homo sapiens) (UniProt P09471)	inactive
O=C(OCC1O[C@@H](OC(=O)c2cc(O)c(O)c(O)c2)[C@@H](OC(=O)c2cc(O)c(O)c(O)c2)[C@@H](OC(=O)c2cc(O)c(O)c(O)c2)[C@@H]1OC(=O)c1cc(O)c(O)c(O)c1)c1cc(O)c(O)c(O)c1 (stereo not given in full)	Guanine nucleotide-binding protein G(o) subunit alpha (Homo sapiens) (UniProt P09471)	active

Q: How did this test come out for CC(=O)NC1C(OCc2ccccc2)OC(COC(C)=O)C(OC(C)=O)C1OC(C)=O (stereo not given) ?
A: inactive

Q: Name the outcome recorded for CN(C)CCN=c1cc(-c2ccccc2)oc2ccc(Cl)cc12 in the assay.
A: active

Q: Can you look up the reported call for CN(CCC1CCOCC1)Cc1cn[nH]c1-c1ccc(-c2ccccc2)cc1 for me?
A: inactive
